target: MMP-13 (Homo sapiens, UniProt P45452); construct: made in house; host or cells: baculovirus / insect cells; test: biochemical; details: recombinant human MMP-13, MCA peptide substrate 4 μM, pH 7.5, room temperature; read-out: MMP-13 IC50
pIC50: −log10 of the molar value.
readout: pIC50

Some compounds with known pIC50 results, for comparison:
O=C(NO)C1(S(=O)(=O)c2ccc(N3CCC(Oc4ccc(Cl)c(Cl)c4)CC3)cc2)CCOCC1 | 8.15
CC(C)CCOc1ccc(COC2CCN(c3ccc(S(=O)(=O)C4(C(=O)NO)CCOCC4)cc3)CC2)cc1 | 7.79
CN(C)c1ccc(C(=O)C2CCN(c3ccc(S(=O)(=O)C4(C(=O)NO)CCOCC4)cc3)CC2)cc1 [Example 784] | 8.22
Cc1ccc(C(=O)C2CCN(c3ccc(S(=O)(=O)C4(C(=O)NO)CCOCC4)cc3)CC2)cc1 | 9.40
O=C(NO)C1(S(=O)(=O)c2ccc(N3CCN(c4ccc(F)cc4F)CC3)cc2)CCOCC1 | 8.40
O=C(NO)C1(S(=O)(=O)c2ccc(N3CCC(OCc4ccccc4-c4ccccc4)CC3)cc2)CCOCC1 | 6.72
CCN(CC)CC(=O)N1CCC(C(=O)NO)(S(=O)(=O)c2ccc(N3CCC(C(=O)N4CC(C)CC(C)C4)CC3)cc2)CC1 (stereo not drawn) | 7.30
O=C(NO)C1(S(=O)(=O)c2ccc(N3CCCC(COCc4ccc(F)cc4)C3)cc2)CCOCC1 (stereo not drawn) | 7.85
Cc1cc(C)cc(OC2CCN(c3ccc(S(=O)(=O)C4(C(=O)NO)CCOCC4)cc3)CC2)c1 | 8.00
O=C(NO)C1(S(=O)(=O)c2ccc(N3CCC(OCc4ccccc4)CC3)cc2)CCOCC1 | 8.52

I = CCOCc1ccc(COC2CCN(c3ccc(S(=O)(=O)C4(C(=O)NO)CCOCC4)cc3)CC2)cc1
II = O=C(NO)C1(S(=O)(=O)c2ccc(Oc3ccc(OC(F)(F)F)cc3)cc2)CCSCC1
Select one: I or II . Criterion: greater recorded pIC50. # respond with the chosen item's label
II
(II: 9.40, I: 8.40)

---

molecular target: MMP-13 (Homo sapiens); construct: made in house; host or cells: baculovirus / insect cells; assay: biochemical; settings: recombinant human MMP-13, MCA peptide substrate 4 μM, pH 7.5, room temperature; read-out: MMP-13 IC50
pIC50: −log10 of the molar value.
readout: pIC50

O=C(NO)C1(S(=O)(=O)c2ccc(N3CCC(OCc4ccc(Cl)cc4)CC3)cc2)CCN(C2CC2)CC1 | 8.38

1 = CC(C)c1cccc(OC2CCN(c3ccc(S(=O)(=O)C4(C(=O)NO)CCOCC4)cc3)CC2)c1
2 = O=C(NO)C1(S(=O)(=O)c2ccc(N3CCN(S(=O)(=O)c4cccc5nsnc45)CC3)cc2)CCOCC1
Please indicate which item has the smaller measured pIC50: 1 versus 2 Kindly state the label of the option you pick.
2

---

molecular target: MMP-2 (Homo sapiens, UniProt P08253); construct: made in house; provided by Dr. Gregory Goldberg, Washington University; test: biochemical; details: recombinant human MMP-2, MCA peptide substrate 4 μM, pH 7.5, room temperature; read-out: MMP-2 IC50
Sequence (P08253 110-660): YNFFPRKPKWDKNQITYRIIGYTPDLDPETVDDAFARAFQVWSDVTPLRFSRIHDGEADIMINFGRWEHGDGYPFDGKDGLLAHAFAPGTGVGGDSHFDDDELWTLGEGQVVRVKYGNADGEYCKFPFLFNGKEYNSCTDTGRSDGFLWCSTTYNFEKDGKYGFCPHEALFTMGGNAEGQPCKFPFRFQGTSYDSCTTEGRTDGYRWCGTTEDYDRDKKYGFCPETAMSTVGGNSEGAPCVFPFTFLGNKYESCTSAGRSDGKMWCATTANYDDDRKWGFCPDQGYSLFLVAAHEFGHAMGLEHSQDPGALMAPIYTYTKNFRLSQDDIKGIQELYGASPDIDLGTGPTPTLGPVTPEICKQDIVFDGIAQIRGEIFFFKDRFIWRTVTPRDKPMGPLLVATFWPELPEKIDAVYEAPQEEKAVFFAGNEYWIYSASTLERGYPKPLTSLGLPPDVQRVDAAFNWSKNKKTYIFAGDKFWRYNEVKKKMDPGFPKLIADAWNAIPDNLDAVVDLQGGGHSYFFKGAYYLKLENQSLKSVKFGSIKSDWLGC
pIC50: −log10 of the molar value. Structures can show the parent of a compound that is named as a salt.
readout: pIC50

O=C(NO)C1(S(=O)(=O)c2ccc(N3CCC(Oc4ccc(Cl)c(Cl)c4)CC3)cc2)CCOCC1 [Example 617] | 8.24

A = O=C(NO)C1(S(=O)(=O)c2ccc(N3CCCC3)cc2)CCOCC1 [Example 81]
B = CC(C)c1cccc(OC2CCN(c3ccc(S(=O)(=O)C4(C(=O)NO)CCOCC4)cc3)CC2)c1 [Example 482]
C = O=C(NCc1ccccc1)OC1CCN(c2ccc(S(=O)(=O)C3(C(=O)NO)CCOCC3)cc2)CC1 [Example 520]
D = COCCN1CCC(C(=O)NO)(S(=O)(=O)c2ccc(Oc3ccc(-n4cncn4)cc3)cc2)CC1 [Example 262, Trihydrochloride]
E = CN1CCN(CC(=O)N2CCC(C(=O)NO)(S(=O)(=O)c3ccc(Oc4ccc(C(F)(F)F)cc4)cc3)CC2)CC1 [Example 324]
Sequence the entries by pIC50, beginning with the highest number. Write the labels, ordered according to the request.
E, D, B, A, C

a = O=C(NO)C1(S(=O)(=O)c2ccc(N3CCC(Oc4ccc(Cl)cc4)CC3)cc2)CCOCC1 [Example 615]
b = O=C(NO)C1(S(=O)(=O)c2ccc([C@H]3CC[C@@H](c4ccccc4)CC3)cc2)CCOCC1 [Example 781]
c = O=C(NO)C1(S(=O)(=O)c2ccc(N3CCC(OCc4ccccc4-c4ccccc4)CC3)cc2)CCOCC1 [Example 181]
Ranking field: pIC50; order: falling. Field: ranking. Enter the labels in the order requested.
a, c, b
(a: 7.96, c: 5.64, b: 5.29)

P = O=C(NO)C1(S(=O)(=O)c2ccc(N3CCC(Oc4ccccc4C(F)(F)F)CC3)cc2)CCOCC1 [Example 568]
Q = CN(C)CCN(C)CC(=O)N1CCC(C(=O)NO)(S(=O)(=O)c2ccc(Oc3ccc(C(F)(F)F)cc3)cc2)CC1 [Example 323]
Compare reported pIC50 values for P and Q . Which is lower? Choose, then provide that item's label.
P

A = C=CCOC1CCN(c2ccc(S(=O)(=O)C3(C(=O)NO)CCOCC3)cc2)CC1 [Example 635]
B = CN1CCN(CCCCC(=O)N2CCC(C(=O)NO)(S(=O)(=O)c3ccc(Oc4ccc(C(F)(F)F)cc4)cc3)CC2)CC1 [Example 339]
Hi, I'm comparing A with B and wondering which one has the bigger number for pIC50. Any idea? When you have decided, please share the label of that item.
B

a = CC(=O)N1CCN(c2ccc(S(=O)(=O)C3(C(=O)NO)CCOCC3)cc2)CC1 [Example 539]
b = CCCC(=O)C1CCN(c2ccc(S(=O)(=O)C3(C(=O)NO)CCOCC3)cc2)CC1 [Example 799]
For the pair a and b , which member has the lower pIC50 number? # answer = label of selected item
a

P = CC(C)CC(=O)C1CCN(c2ccc(S(=O)(=O)C3(C(=O)NO)CCOCC3)cc2)CC1 [Example 756]
Q = C=C(C)CC(=O)C1CCN(c2ccc(S(=O)(=O)C3(C(=O)NO)CCOCC3)cc2)CC1 [Example 759]
R = Cc1ccccc1N1CC2CC1CN2c1ccc(S(=O)(=O)C2(C(=O)NO)CCOCC2)cc1 (centres unmarked) [Example 494]
Sort the 3 molecules by pIC50; largest first, smallest last. Field: ranking. Enter the labels in the order requested.
P, Q, R
(P: 7.54, Q: 7.22, R: 5.48)

---

molecular target: MMP-2 (Homo sapiens, UniProt P08253); construct: made in house; provided by Dr. Gregory Goldberg, Washington University; assay: biochemical; conditions: recombinant human MMP-2, MCA peptide substrate 4 μM, pH 7.5, room temperature; read-out: MMP-2 IC50
readout: IC50 (µM)

Solved entries:
O=C(Nc1ccccc1OC(F)(F)F)C1CCN(c2ccc(S(=O)(=O)C3(C(=O)NO)CCOCC3)cc2)CC1 [Example 63] | 2.9
COc1ccccc1NC(=O)N1CCC(C(=O)NO)(S(=O)(=O)c2ccc(Oc3ccc(OC(F)(F)F)cc3)cc2)CC1 [Example 357] | 0.0001

a = Cc1cccc(S(=O)(=O)N2CCN(c3ccc(S(=O)(=O)C4(C(=O)NO)CCOCC4)cc3)CC2)c1 [Example 671]
b = CN(CCc1ccccc1)C1CCN(c2ccc(S(=O)(=O)C3(C(=O)NO)CCOCC3)cc2)CC1 [Example 584]
# compare IC50 for a vs b ; return the one with the smaller value The response must carry the label of the picked entry.
a

---

Target: MMP-2 (Homo sapiens, UniProt P08253)
Construct: made in house; provided by Dr. Gregory Goldberg, Washington University
Experiment: biochemical
Details: recombinant human MMP-2, MCA peptide substrate 4 μM, pH 7.5, room temperature; read-out: MMP-2 IC50
Protocol: The compounds prepared in the manner described in the Examples above were assayed for activity by an in vitro assay. […] Briefly, 4-aminophenylmercuric acetate (APMA) or trypsin-activated MMPs were incubated with various concentrations of the inhibitor compound at room temperature for 5 minutes. […] Inhibition was measured as a reduction in fluorescent intensity as a function of inhibitor concentration, using a Perkin Elmer L550 plate reader. The IC50 values were calculated from those values. […]
readout: IC50 (µM)

Consider the reported IC50 for these molecules:
Cc1cccc(COC2CCC(Oc3ccc(S(=O)(=O)C4(C(=O)NO)CCOCC4)cc3)C2)c1 (stereo not drawn) [Example 706] | 0.04
O=C(NO)C1(S(=O)(=O)c2ccc(N3CCN(Cc4ccccc4)CC3)cc2)CCOCC1 [Example 538] | 0.37
O=C(CCCCN1CCNCC1)N1CCC(C(=O)NO)(S(=O)(=O)c2ccc(Oc3ccc(C(F)(F)F)cc3)cc2)CC1 [Example 343] | 0.0008

A = CC1(C)CC2CC(C)(CN2c2ccc(S(=O)(=O)C3(C(=O)NO)CCOCC3)cc2)C1 (stereo not drawn) [Example 214]
B = O=C(NO)C1(S(=O)(=O)c2ccc(OC3CCCC(OCc4ccccc4Cl)C3)cc2)CCOCC1 (stereo not drawn) [Example 666]
C = CC(C)(C)OC1CCN(c2ccc(S(=O)(=O)C3(C(=O)NO)CCOCC3)cc2)CC1 [Example 693]
D = O=C(NO)C1(S(=O)(=O)c2ccc(N3CCCN(S(=O)(=O)c4ccccc4)CC3)cc2)CCOCC1 [Example 650]
Order the 4 molecules from highest to lowest IC50. I would appreciate it if you listed the labels in the requested order.
A, C, D, B
